biological target: D(1A) dopamine receptor (Homo sapiens); assay: Agonist activity at human recombinant dopamine D1 receptor expressed in CHO cells assessed as stimulation of cAMP production
Sequence (P21728 whole entry): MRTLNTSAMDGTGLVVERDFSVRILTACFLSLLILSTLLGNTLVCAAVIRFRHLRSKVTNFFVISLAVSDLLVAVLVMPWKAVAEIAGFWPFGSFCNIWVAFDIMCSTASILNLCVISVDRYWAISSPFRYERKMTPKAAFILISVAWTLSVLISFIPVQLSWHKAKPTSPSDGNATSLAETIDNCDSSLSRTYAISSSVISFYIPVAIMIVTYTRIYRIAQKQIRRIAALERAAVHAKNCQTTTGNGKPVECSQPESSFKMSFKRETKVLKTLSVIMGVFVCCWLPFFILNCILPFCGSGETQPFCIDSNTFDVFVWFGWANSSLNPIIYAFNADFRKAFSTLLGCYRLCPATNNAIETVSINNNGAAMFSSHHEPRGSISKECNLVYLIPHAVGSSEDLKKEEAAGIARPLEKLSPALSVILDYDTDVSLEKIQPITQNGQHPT
Observation Type: pEC50
Scale: pEC50 equals -log10([C]), with [C] in mol/L.

Item under review: "CCCN1CCC[C@@H]2Cc3c(ccc(O)c3O)C[C@H]21" . Reported pEC50?
7.60

---

target: D(2) dopamine receptor (Homo sapiens, UniProt P14416); assay: Agonist activity at human dopamine D2 receptor expressed in CHO cells assessed as inhibition of forskolin-stimulated cAMP production
Sequence (P14416 whole entry): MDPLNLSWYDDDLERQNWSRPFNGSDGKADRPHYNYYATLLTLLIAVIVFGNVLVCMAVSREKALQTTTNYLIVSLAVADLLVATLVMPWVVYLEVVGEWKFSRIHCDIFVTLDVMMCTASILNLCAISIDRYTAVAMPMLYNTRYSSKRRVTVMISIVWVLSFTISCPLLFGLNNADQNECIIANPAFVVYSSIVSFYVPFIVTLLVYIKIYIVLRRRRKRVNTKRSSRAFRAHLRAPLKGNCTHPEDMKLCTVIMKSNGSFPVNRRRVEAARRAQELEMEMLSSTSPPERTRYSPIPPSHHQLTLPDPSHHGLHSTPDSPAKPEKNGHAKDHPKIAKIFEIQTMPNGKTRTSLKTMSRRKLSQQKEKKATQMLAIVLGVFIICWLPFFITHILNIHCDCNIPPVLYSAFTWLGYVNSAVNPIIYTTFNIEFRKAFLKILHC
Observation Type: EC50 (nM)
Give just the number in nM; leave the unit off.

Which EC50 is reported with D(2) dopamine receptor (Homo sapiens, UniProt P14416) for this entry: "CCCN1CCC[C@@H]2Cc3c(ccc(O)c3O)C[C@H]21" ?
0.65
